// data source = PubChem BioAssay AID1963422

Let's look at some compounds and their measured viability, T/C.
tested on: 463943-066-T-J2-PDC complex spheroid growth; assay: Anticancer human tumor 463943-066-T-J2-PDC patient-derived colon adenocarcinoma cell line growth inhibition [Asc]; settings: second compound 0.316 µM; first compound 0.01 µM; hits give low values;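 note: compound exposure lasted 7 days; 100% = DMSO vehicle control wells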
Please state the figure in %; there is no need to write the unit.

Requested field: viability, T/C. Item: CCN1CCN(Cc2ccc(Nc3ncc(F)c(-c4cc(F)c5nc(C)n(C(C)C)c5c4)n3)nc2)CC1 + Cc1c(S(C)(=O)=O)c(-c2cc(F)cc(N3CCN(c4ccc(NS(=O)(=O)c5ccc(NC(CCN6CCC(C(=O)OCCCP(=O)(O)O)CC6)CSc6ccccc6)c(S(=O)(=O)C(F)(F)F)c5)cc4)CC3)c2)c(-c2ccc(Cl)cc2)n1C(C)C 91.2

Same read-out for COc1c(OCCCN2CCOCC2)ccc2c3n(c(=NC(=O)c4cnc(N)nc4)nc12)CCN3 + Cc1c(S(C)(=O)=O)c(-c2cc(F)cc(N3CCN(c4ccc(NS(=O)(=O)c5ccc(NC(CCN6CCC(C(=O)OCCCP(=O)(O)O)CC6)CSc6ccccc6)c(S(=O)(=O)C(F)(F)F)c5)cc4)CC3)c2)c(-c2ccc(Cl)cc2)n1C(C)C ? 92.6

More entries:
Requested field: viability, T/C. Item: CNC(C)C(=O)NC1CN(S(=O)(=O)c2cccc(S(=O)(=O)N3CCC4CCC(C(=O)NC(c5ccccc5)c5ccccc5)N4C(=O)C(NC(=O)C(C)NC)C3)c2)CCC2CCC(C(=O)NC(c3ccccc3)c3ccccc3)N2C1=O (stereo not drawn) + Cc1c(S(C)(=O)=O)c(-c2cc(F)cc(N3CCN(c4ccc(NS(=O)(=O)c5ccc(NC(CCN6CCC(C(=O)OCCCP(=O)(O)O)CC6)CSc6ccccc6)c(S(=O)(=O)C(F)(F)F)c5)cc4)CC3)c2)c(-c2ccc(Cl)cc2)n1C(C)C 89.3
